Target: T1, CD4 cell surface receptor molecule on peripheral blood mononuclear cells (PBMCs) (human, UniProt P01730 26-458)
T1 construct: whole, on cells; also called CD4 receptor molecule
Assay: flow cytometry, PBMCs, live CD3+ T cells; column 'Fab multimer': Fab multimerized on Strep-Tactin PE
MEASURED ATTRIBUTE: percentage of cells within gate
Note to self: number, then unit, no commentary.

Task: What value of measured percentage of cells within gate is listed for Mutant 13B8.2 Fab fragment with His at position 91 of the light chain mutated to Ala, heavy chain fused to One-STrEP-tag (Fab, V domains shown, also called CD4 mutant 4 (H91A); mutant 4) VH: QVQLKQSGPGLVQPSQSLSITCTVSGFSLTTFGVHWVRQSPGKGLEWLGVIWRSGITDYNVPFMSRLSITKDNSKSQVFFKLNSLQPDDTAIYYCAKNDPGTGFAYWGQGTLVTVSA VL: DIQMTQSPASLSASVGETVTFTCRASEMIYSYLAWYQQKQGKSPQLLVHDAKTLAEGVPSRFSGGGSGTQFSLKINTLQPEDFGTYYCQHAYGNPPTFGGGTKLEIKR ?
Result: 23.1%

Task: What value of measured percentage of cells within gate is listed for Mutant 13B8.2 Fab fragment with His at position 35 of the heavy chain mutated to Ala, heavy chain fused to One-STrEP-tag (Fab, V domains shown, also called CD4 mutant 3 (H35A); mutant 3) VH: QVQLKQSGPGLVQPSQSLSITCTVSGFSLTTFGVAWVRQSPGKGLEWLGVIWRSGITDYNVPFMSRLSITKDNSKSQVFFKLNSLQPDDTAIYYCAKNDPGTGFAYWGQGTLVTVSA VL: DIQMTQSPASLSASVGETVTFTCRASEMIYSYLAWYQQKQGKSPQLLVHDAKTLAEGVPSRFSGGGSGTQFSLKINTLQPEDFGTYYCQHHYGNPPTFGGGTKLEIKR ?
Result: 23.4%

Task: What value of measured percentage of cells within gate is listed for Mutant 13B8.2 Fab fragment with Tyr at position 92 of the light chain mutated to Ala, heavy chain fused to One-STrEP-tag (Fab, V domains shown, also called CD4 mutant 2 (Y92A); mutant 2) VH: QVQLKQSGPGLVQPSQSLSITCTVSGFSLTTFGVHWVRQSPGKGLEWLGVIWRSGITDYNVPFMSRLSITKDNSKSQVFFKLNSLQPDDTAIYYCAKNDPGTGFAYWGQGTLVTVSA VL: DIQMTQSPASLSASVGETVTFTCRASEMIYSYLAWYQQKQGKSPQLLVHDAKTLAEGVPSRFSGGGSGTQFSLKINTLQPEDFGTYYCQHHAGNPPTFGGGTKLEIKR ?
Result: 14.7%

Task: What value of measured percentage of cells within gate is listed for Mutant 13B8.2 Fab fragment with Phe at position 100 of the heavy chain mutated to Ala, heavy chain fused to One-STrEP-tag (Fab, V domains shown, also called CD4 mutant 1 (F100A); F100K-H) VH: QVQLKQSGPGLVQPSQSLSITCTVSGFSLTTFGVHWVRQSPGKGLEWLGVIWRSGITDYNVPFMSRLSITKDNSKSQVFFKLNSLQPDDTAIYYCAKNDPGTGAAYWGQGTLVTVSA VL: DIQMTQSPASLSASVGETVTFTCRASEMIYSYLAWYQQKQGKSPQLLVHDAKTLAEGVPSRFSGGGSGTQFSLKINTLQPEDFGTYYCQHHYGNPPTFGGGTKLEIKR ?
Result: 23%
